Origin of values: patent US20250170248A1

Target: SMARCA2 (Homo sapiens, UniProt P51531)
Sequence (P51531 whole entry): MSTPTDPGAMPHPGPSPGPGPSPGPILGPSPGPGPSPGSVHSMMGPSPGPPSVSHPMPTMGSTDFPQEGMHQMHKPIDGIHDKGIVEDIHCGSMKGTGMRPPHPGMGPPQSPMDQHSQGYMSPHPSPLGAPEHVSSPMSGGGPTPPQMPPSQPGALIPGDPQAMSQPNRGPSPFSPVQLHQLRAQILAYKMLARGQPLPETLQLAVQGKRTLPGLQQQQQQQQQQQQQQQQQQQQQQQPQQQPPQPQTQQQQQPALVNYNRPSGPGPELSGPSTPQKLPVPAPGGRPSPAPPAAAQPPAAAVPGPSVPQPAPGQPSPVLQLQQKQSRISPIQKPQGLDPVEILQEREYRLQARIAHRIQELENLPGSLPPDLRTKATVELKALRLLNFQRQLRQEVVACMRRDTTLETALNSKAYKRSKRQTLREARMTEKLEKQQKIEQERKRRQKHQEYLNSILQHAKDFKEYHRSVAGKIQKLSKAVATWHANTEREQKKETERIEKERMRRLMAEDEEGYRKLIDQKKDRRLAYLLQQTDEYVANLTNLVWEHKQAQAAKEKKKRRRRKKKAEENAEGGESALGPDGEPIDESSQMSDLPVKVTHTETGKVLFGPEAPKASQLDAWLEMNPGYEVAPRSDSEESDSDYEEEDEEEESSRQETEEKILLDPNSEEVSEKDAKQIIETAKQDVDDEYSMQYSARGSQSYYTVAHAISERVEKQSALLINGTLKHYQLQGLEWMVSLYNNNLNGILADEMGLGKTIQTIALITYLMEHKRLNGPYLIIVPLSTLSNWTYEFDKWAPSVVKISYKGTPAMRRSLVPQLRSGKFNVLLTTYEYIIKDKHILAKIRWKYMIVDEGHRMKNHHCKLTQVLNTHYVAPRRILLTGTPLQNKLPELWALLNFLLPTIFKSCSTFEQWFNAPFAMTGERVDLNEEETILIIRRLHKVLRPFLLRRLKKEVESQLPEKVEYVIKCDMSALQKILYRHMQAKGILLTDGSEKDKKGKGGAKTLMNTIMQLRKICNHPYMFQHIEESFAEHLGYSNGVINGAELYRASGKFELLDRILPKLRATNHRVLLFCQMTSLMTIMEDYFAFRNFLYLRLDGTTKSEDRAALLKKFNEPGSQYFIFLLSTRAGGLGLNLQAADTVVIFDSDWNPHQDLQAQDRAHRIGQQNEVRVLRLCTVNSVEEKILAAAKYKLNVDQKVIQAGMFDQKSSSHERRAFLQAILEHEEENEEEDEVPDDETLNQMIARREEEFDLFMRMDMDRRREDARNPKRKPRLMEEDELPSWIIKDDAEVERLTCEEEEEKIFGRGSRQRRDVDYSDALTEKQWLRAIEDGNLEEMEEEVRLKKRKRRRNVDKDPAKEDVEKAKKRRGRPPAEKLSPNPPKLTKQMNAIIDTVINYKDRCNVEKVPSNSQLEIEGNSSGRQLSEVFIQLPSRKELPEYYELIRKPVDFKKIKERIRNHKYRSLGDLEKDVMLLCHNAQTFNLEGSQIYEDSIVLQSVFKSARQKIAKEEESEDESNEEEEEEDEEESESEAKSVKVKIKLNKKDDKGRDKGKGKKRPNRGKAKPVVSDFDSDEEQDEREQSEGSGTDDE
Assay: MSD SMARCA2 degradation in A549 cell line
Format: cell-based
Details: A549 cells, 24 h, read-out: SMARCA2 MSD A549 degradation 24 h: Average external-Abs DC50
Give DC50 for every item shown.

COMPOUND | DC50
C#Cc1ccc(CNC(=O)[C@@H]2C[C@@H](O)CN2C(=O)[C@H](NC(=O)[C@H]2CCC3(CC2)C[C@H](N2CCC(c4cnc(N5CCN6c7cc(-c8ccccc8O)nnc7NC[C@H]6C5)nc4)CC2)C3)C(C)(C)CCO)cc1 (single isomer, unassigned) | > 100 nM

Please examine the following record next.
Task: Name the reported DC50 value associated with the compound `C#Cc1ccc(CNC(=O)[C@@H]2C[C@@H](O)CN2C(=O)[C@@H](OC(=O)N2CC3(CC(N4CCC(c5cnc(N6CCc7[nH]c8nnc(-c9ccccc9O)cc8c7[C@H]6C)nc5)CC4)C3)C2)C(C)(C)C)cc1`
Output: < 10 nM
